pKd listing for selected binders.
- target_or_test_system: canine IL-4RA (construct not given) (canine)
- protocol_details: SPR, combinatorial Fab-SASA clone
pKd: −log10 of the molar value.
value_type: pKd

>>> meas_value("AHF21201 (Fab, V domains shown, not shown: small tags and cut ends) VH: EVQLVESGGDLVKPGGSLRLSCVASGFTFRDYAMTWVRQAPGKGLQWVSLINGSGGKTYYADAVKGRFTISRDNAKNTLYLQMNSLRAEDTAVYYCAVDRLTKTIRPQYYGLWHWGQGTLVTVSS VL: DIVMTQTPLSLSVSPGETASISCRSSQSLLYSIGYNYLDWYLQKPGQSPQGLIYLGHKRASGVPDRFSGSGSGTDFTLRISRVEANDTGVYYCMQGLQSPLGFGQGTKLEIKR")
9.36
>>> meas_value("AHF21195 (Fab, V domains shown, not shown: small tags and cut ends) VH: EVQLVESGGDLVKPGGSLRLSCVASGFTFRDYAMTWVRQAPGKGLQWVSLINGSGGKTYYADAVKGRFTISRDNAKNTLYLQMNSLRAEDTAVYYCAVDRKTKTIRPQYYGLWVWGQGTLVTVSS VL: DIVMTQTPLSLSVSPGETASISCRSSQSLLYSIGYNYLDWYLQKPGQSPQGLIYLGSKRASGVPDRFSGSGSGTDFTLRISRVEANDTGVYYCMQGLQSPLSFGQGTKLEIKR")
9.00
